# Test system: SN12C renal
# PROCEDURE_DETAILS: NCI tumour cell line growth inhibition, 48 h
Parameter threshold = 6 µM. Response is True when TGI meets or exceeds it, else False.

Below are worked cases with known answers.
COMPOUND: COC(=O)C12C3C4C1C1C2C3C41C(=O)NC(C)(C)CC(=O)O (stereo not given)
CAT: True

COMPOUND: CCOC1CCC2C(CCC(/C=C/c3ccc(O)c4ncccc34)N2C)C1 (stereo not given)
CAT: True

COMPOUND: C#CCC(O)c1ccccc1C(O)CC#C (stereo not given)
CAT: True

COMPOUND: CC(C)(O)C1CC[C@]2(C)CC[C@]3(C)[C@H](CC[C@@H]4[C@@]5(C)CC[C@H](O)C(C)(C)[C@@H]5CC[C@]43C)[C@@H]12 (stereo not given in full)
CAT: True

COMPOUND: O=C(NCCCCN(CCCNC(=O)C(F)(F)F)Cc1ccccc1)C(F)(F)F
CAT: True

COMPOUND: COc1ccc2c(c1)C(=Nc1ccc(F)c(F)c1F)c1c-2c(Nc2ccc(F)c(F)c2F)nc2ccccc12
CAT: True

COMPOUND: O=c1cc(NNc2ccc(F)cc2)[nH]c(=O)[nH]1
CAT: True

COMPOUND: COc1cc(/C=N/NC(=O)c2c(Cl)c(Cl)c(Cl)c(Cl)c2-c2nc3ccccc3[nH]2)ccc1O
CAT: True

Request: Record `C=C1C(=O)O[C@H]2[C@H]1CC/C(COC(=O)NCc1ccc(Cn3c(=O)sn(CCCC)c3=O)cc1)=C\CC[C@@]1(C)O[C@@H]21` ; criterion: TGI no lower than 6 µM. Met?
Result: False

Request: Evaluate CC(=O)NC(CCCN(Cc1ccccc1)C(=O)NCCCl)C(=O)NCc1ccccc1 (stereo not given) : TGI at minimum 6 µM?
Result: True

Request: Assess whether reported TGI for `COc1cc2c(cc1O)[C@@]1(Cc3ccc(OC)c(OC)c3)CCC(=O)N1CC2` sits at 6 µM or higher.
Result: True

Request: # bool: TGI of CC(=O)OCC1OC(n2c(C)c(C(C)=O)c(-c3ccc(Cl)cc3)c(C#N)c2=S)C(OC(C)=O)C(OC(C)=O)C1OC(C)=O (stereo not given) >= 6 µM
Result: True
